The reported measurements were obtained from paper PMC5591277.

# TESTED_SYSTEM: T1, Lsm2-8 complex (Saccharomyces cerevisiae, UniProt P38203;P57743;P40070;P40089;Q06406;P53905;P47093 …)
# T1 sequence 1: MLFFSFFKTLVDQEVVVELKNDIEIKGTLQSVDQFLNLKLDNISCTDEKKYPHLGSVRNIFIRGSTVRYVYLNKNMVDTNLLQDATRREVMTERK
# T1 sequence 2: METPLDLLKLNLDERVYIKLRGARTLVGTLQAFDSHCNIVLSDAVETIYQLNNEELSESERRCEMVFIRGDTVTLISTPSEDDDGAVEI
# T1 sequence 3: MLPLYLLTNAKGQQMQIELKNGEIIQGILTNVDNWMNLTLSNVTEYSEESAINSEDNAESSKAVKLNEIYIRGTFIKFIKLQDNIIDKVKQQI
# T1 sequence 4: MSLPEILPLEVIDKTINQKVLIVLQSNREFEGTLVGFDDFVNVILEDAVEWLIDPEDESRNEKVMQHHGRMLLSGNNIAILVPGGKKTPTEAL
# T1 sequence 5: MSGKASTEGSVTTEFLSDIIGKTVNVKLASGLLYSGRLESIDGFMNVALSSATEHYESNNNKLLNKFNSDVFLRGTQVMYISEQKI
# T1 sequence 6: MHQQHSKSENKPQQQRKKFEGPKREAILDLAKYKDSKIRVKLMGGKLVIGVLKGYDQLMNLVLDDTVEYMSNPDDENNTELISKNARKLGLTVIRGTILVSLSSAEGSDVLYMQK
# T1 sequence 7: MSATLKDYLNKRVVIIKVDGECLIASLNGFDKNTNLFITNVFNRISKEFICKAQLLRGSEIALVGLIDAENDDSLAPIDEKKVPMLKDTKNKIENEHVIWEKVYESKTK
# METHOD_SUMMARY: fluorescence polarization; Hill 1.0; EMSA: 5 nM Cy3-U6, 100 mM KCl, 20% sucrose, 20 mM bis-tris/10 mM HCl, 1 mM EDTA, 1 mM TCEP, 0.01% Triton X-100, 0.1 mg/mL tRNA, 0.01 mg/mL heparin, 0.1 mg/mL BSA, room temp 20 min (gel 4 C); FP: 0.25-1 nM FAM-RNA, 100 mM NaCl, 20 mM bis-tris/10 mM HCl, 1 mM TCEP, 5% glycerol, 1 mM EDTA, yeast tRNA, BSA
# EXPERIMENTAL_CONTEXT: protein: recombinant; tags: His on Lsm8 and GST on Lsm6, removed by TEV; copies: 1;1;1;1;1;1;1; label: 5' 6-FAM
Reported pKd values for a set of binders
pKd is a log-scale quantity: -log10 of the concentration expressed in molar.

BINDER: AGAGAUUUAUUUCGUUUUU (ssRNA, 3' phosphate) [U6 95-112+1U 3'P]
TEST_READOUT: pKd
RECORDED_RESULT: 8.52

Then there is this binder:
Incoming: Need pKd, item AGAGAUUUAUUUCGUUUUU (ssRNA, 2',3'-cis-diol end) [U6 95-112+1U 3'OH]
Outgoing: 7.77
